Tested on: ATP;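 further: ATP exposure 15 min at 22 °C before imaging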
Assay remarks: switch fluorescence ratio, 500 uM ATP over buffer (Cy3 cluster intensity, sum of 5 cycles each) (fold (ratio)); higher = stronger signal-on switching upon ATP binding; sequences stand for … in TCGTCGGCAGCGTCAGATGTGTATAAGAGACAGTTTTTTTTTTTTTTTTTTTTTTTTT…TC
Condition parameters: aptamer strand: ATP DNA aptamer (quencher-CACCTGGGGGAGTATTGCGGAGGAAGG + anchor), 100 nM annealed; ATP concentration: 500 uM
Experimental readout: switch fluorescence ratio
Answers are plain numbers.

These solved cases illustrate the format of a correct answer.
TTTCGGTGTT    0.981
CCAAAAGGCA    1.04

Hi, could you look up switch fluorescence ratio for each item in my list?
1. ATAGTACAGG
2. AAACCGGGAC
3. AATTTTGGGA
4. TACTTCTTTT

1: 1.08; 2: 1.55; 3: 0.994; 4: 0.958

* * *

Tested on: ATP;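 further: ATP exposure 15 min at 22 °C before imaging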
Assay remarks: switch fluorescence ratio, 500 uM ATP over buffer (Cy3 cluster intensity, sum of 5 cycles each) (fold (ratio)); higher = stronger signal-on switching upon ATP binding; sequences stand for … in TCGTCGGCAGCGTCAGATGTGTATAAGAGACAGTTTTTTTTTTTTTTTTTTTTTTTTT…TC
Condition parameters: aptamer strand: ATP DNA aptamer (quencher-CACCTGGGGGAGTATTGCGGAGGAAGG + anchor), 100 nM annealed; ATP concentration: 500 uM
I'd be grateful if you could share measured switch fluorescence ratio for these entries.
Give bare numbers.

Some solved cases for reference:
GAAAAGATTG    0.972
ACTGGTGACT    1.01

Please state switch fluorescence ratio for every sequence in the list that follows.
1. TAAGTCCACC
2. GAGATAGAGA

1. 1.01
2. 1.02

// input: 4 sequences below; output: switch fluorescence ratio for each
1. GGATCTGTCG
2. GACGACTCGG
3. GACAAAGATT
4. TGGGGTTAGT

1: 0.98; 2: 0.987; 3: 1; 4: 0.979

Kindly give each listed record's switch fluorescence ratio.
1. GCGGGGCCCA
2. TCGATATTTA
3. GGAAAATAAT
4. AATCCATGGC
5. AATAAGTTGT
6. GGGTTCCTAG
7. TAAGTAAAAT

1. 1.01
2. 0.982
3. 1.01
4. 0.987
5. 0.999
6. 1.01
7. 0.997

* * *

Tested on: ATP;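 further: ATP exposure 15 min at 22 °C before imaging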
Assay remarks: switch fluorescence ratio, 500 uM ATP over buffer (Cy3 cluster intensity, sum of 5 cycles each) (fold (ratio)); higher = stronger signal-on switching upon ATP binding; sequences stand for … in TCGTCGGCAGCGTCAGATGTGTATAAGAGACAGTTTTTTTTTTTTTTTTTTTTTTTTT…TC
Condition parameters: aptamer strand: ATP DNA aptamer (quencher-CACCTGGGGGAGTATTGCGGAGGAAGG + anchor), 100 nM annealed; ATP concentration: 500 uM
Experimental readout: switch fluorescence ratio

ACATTAGTTT    1.01

Would you mind listing switch fluorescence ratio for each of the following sequences?
1. CTCTGGACAG
2. TGATCACTAT
3. TTTCCTTTGG

1: 0.972; 2: 1.01; 3: 1.01

Quick batch: switch fluorescence ratio for everything below.
1. GGGGCATGGT
2. GTGGTTCTAT
3. CCATTTTATT
4. AGGTTTTGAT
5. AAGTTCTATA
6. TACGGGGCTG

[1.01, 0.996, 0.988, 1.01, 1.01, 1.01]

I would be grateful if you could provide switch fluorescence ratio for each of the following entries.
1. TCTTTGTCTA
2. ATAGGAGTGC
3. TTACGGGCGA
4. GTATGTAGTA
5. TTTTGAGTGT
6. CGGTTCGAGT
7. TCGGAAGGCT

0.972
1.01
0.998
0.985
0.995
1.01
0.999

Please give switch fluorescence ratio, item by item, for the list that follows.
1. GGTTTACTTC
2. CTATTTTGGG

[0.997, 0.993]

* * *

Consider the following sequences; for each one, report its switch fluorescence ratio.
Test system: ATP;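 further: ATP exposure 15 min at 22 °C before imaging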
Assay remarks: switch fluorescence ratio, 500 uM ATP over buffer (Cy3 cluster intensity, sum of 5 cycles each) (fold (ratio)); higher = stronger signal-on switching upon ATP binding; sequences stand for … in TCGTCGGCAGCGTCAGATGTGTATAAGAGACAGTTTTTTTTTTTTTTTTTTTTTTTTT…TC
Condition parameters: aptamer strand: ATP DNA aptamer (quencher-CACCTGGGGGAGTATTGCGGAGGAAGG + anchor), 100 nM annealed; ATP concentration: 500 uM
One number for each entry.

TCGGTTTGCA    0.997

Okay, here is my list. What is switch fluorescence ratio for each of these?
1. TTGTGGATAA
2. AGGCGGGGGG
3. CAAAAAGCAC
4. GATTGACAGG
5. TGCGGGGGG

1.01
1.02
1.06
1.04
0.986

Look up switch fluorescence ratio for the entries below, preserving their order.
1. CGTTCGTTCG
2. TGGGTTGGTT
3. TTAATTTTCT
4. TGTGAGGCTT
5. TTTCGGTTGG
6. GGGATGAGAG
7. AGGTCGGGTA

0.989
1
1.04
1.03
0.999
1
0.979

* * *

System: ATP;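 further: ATP exposure 15 min at 22 °C before imaging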
Assay remarks: switch fluorescence ratio, 500 uM ATP over buffer (Cy3 cluster intensity, sum of 5 cycles each) (fold (ratio)); higher = stronger signal-on switching upon ATP binding; sequences stand for … in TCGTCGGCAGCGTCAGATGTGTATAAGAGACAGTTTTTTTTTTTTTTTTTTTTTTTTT…TC
Condition parameters: aptamer strand: ATP DNA aptamer (quencher-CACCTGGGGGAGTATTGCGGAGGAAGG + anchor), 100 nM annealed; ATP concentration: 500 uM
Give measured switch fluorescence ratio for each item. Keep answers brief.
Answers are plain numbers.

TTAAGTCTAT    0.989
CGGGGTTAGC    1.01
TGGGATAGTG    1
GGATTTAGAA    0.975
TTAAGGCCCG    1.01

Give switch fluorescence ratio for each listed item.
1. ATCTTGGCTG
2. GTAAACGGTG

1. 0.983
2. 0.979

Okay, here is my list. What is switch fluorescence ratio for each of these?
1. GGGTTGCTAC
2. AAGGGGGAGC
3. TGGAAGGGGG
4. GTGATTTAGA
5. TATATAGGTA
6. TTTTCGAAGG
7. CAGTGTGAGC
8. AGGGCTTGAA

1. 1.02
2. 0.988
3. 1.01
4. 0.997
5. 1.01
6. 1
7. 1.01
8. 0.991

* * *

Kindly supply the reported switch fluorescence ratio values for the records listed here.
Test system: ATP;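 further: ATP exposure 15 min at 22 °C before imaging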
Assay remarks: switch fluorescence ratio, 500 uM ATP over buffer (Cy3 cluster intensity, sum of 5 cycles each) (fold (ratio)); higher = stronger signal-on switching upon ATP binding; sequences stand for … in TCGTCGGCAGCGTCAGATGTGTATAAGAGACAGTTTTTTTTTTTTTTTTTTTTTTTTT…TC
Condition parameters: aptamer strand: ATP DNA aptamer (quencher-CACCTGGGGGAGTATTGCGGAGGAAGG + anchor), 100 nM annealed; ATP concentration: 500 uM
One number for each entry.

In the examples that follow, each entry is paired with its recorded switch fluorescence ratio.
TACTAAGAGA    1.03
TGAAATGTTT    0.999
CAGGTTCACG    1.02

Give one value of switch fluorescence ratio per listed sequence.
1. GTATACGCAG
2. TCAGGCGGC
3. TTTCTTTGCA
4. GGGGGCAACT
5. ATGTACGCGT

[1.02, 0.992, 1.06, 0.997, 0.995]

Please state, for each entry, its recorded switch fluorescence ratio.
1. GAAACATTGG
2. TCTGTTTTGG

1: 1.04; 2: 1

# batch: return switch fluorescence ratio for each of the 3 sequences below
1. TTGTGATTGC
2. TCAGTTATCG
3. GAAATACCTT

1. 1.03
2. 0.985
3. 0.976

* * *

Tested on: ATP;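 further: ATP exposure 15 min at 22 °C before imaging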
Assay remarks: switch fluorescence ratio, 500 uM ATP over buffer (Cy3 cluster intensity, sum of 5 cycles each) (fold (ratio)); higher = stronger signal-on switching upon ATP binding; sequences stand for … in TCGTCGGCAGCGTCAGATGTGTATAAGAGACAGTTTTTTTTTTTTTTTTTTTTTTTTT…TC
Condition parameters: aptamer strand: ATP DNA aptamer (quencher-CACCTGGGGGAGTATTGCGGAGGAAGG + anchor), 100 nM annealed; ATP concentration: 500 uM
What switch fluorescence ratio was measured for each of the following?
Numbers only.

A selection of reference data follows.
TGATGGAAGT    0.986
TACAAACGGT    1.17
TTTTTCGGG    0.996
TGTCGAAAGA    0.999
AGTAAGATCA    0.992

Could I get switch fluorescence ratio for every one of these entries?
1. TAGAATACTT
2. TTCATGGTTT
3. AAGTATTATT

[0.996, 1.01, 0.983]
